Measured Activity accompanies every entry in the list below.
# Test system: Rattus norvegicus
# measurement-protocol: Effect on temperature homeostasis in telemetric ovariectomy-induced thermoregulatory dysfunction Sprague-Dawley rat model assessed as maximum reduction in tail skin temperature at 3 mg/kg, po relative to baseline
# Type: functional

smiles-notation	Activity
CCn1c(=O)n([C@@H](c2ccccc2)[C@H](O)CNC)c2ccccc21	1.82 °C
CNC[C@@H](O)[C@H](c1cccc(F)c1)n1c(=O)n(C(C)C)c2cccc(F)c21	3.73 °C
CCn1c(=O)n([C@@H](c2cccc(F)c2)[C@H](O)CNC)c2ccccc21	2.62 °C
CNC[C@@H](O)[C@H](c1ccccc1)n1c(=O)n(C(C)C)c2cccc(F)c21	2.09 °C

----------
# measurement-protocol: Tmax in Sprague-Dawley rat at 10 mg/kg, po
# Format: ADME, organism-based
# Parameters: dose 10 mg/kg, route oral
# settings: in vivo
observable: Tmax

smiles-notation	observable	reported
CNC[C@@H](O)[C@H](c1cccc(F)c1)n1c(=O)n(C(C)C)c2cccc(F)c21	Tmax	30 min
CCn1c(=O)n([C@@H](c2ccccc2)[C@H](O)CNC)c2ccccc21	Tmax	66 min

----------
# Tested on: Rattus norvegicus
# measurement-protocol: Effect on temperature homeostasis in telemetric ovariectomy-induced thermoregulatory dysfunction Sprague-Dawley rat model assessed as duration of tail skin temperature reduction at 3 mg/kg, po
# Type: functional
observable: Time (h)

smiles-notation	observable	unit	reported
CCn1c(=O)n([C@@H](c2ccccc2)[C@H](O)CNC)c2ccccc21	Time	h	3.5
CNC[C@@H](O)[C@H](c1ccccc1)n1c(=O)n(C(C)C)c2cccc(F)c21	Time	h	1
CCn1c(=O)n([C@@H](c2cccc(F)c2)[C@H](O)CNC)c2ccccc21	Time	h	5
CNC[C@@H](O)[C@H](c1cccc(F)c1)n1c(=O)n(C(C)C)c2cccc(F)c21	Time	h	6

----------
# tested-on: Sodium-dependent dopamine transporter (Homo sapiens) (UniProt Q01959)
# Sequence (Q01959 whole entry): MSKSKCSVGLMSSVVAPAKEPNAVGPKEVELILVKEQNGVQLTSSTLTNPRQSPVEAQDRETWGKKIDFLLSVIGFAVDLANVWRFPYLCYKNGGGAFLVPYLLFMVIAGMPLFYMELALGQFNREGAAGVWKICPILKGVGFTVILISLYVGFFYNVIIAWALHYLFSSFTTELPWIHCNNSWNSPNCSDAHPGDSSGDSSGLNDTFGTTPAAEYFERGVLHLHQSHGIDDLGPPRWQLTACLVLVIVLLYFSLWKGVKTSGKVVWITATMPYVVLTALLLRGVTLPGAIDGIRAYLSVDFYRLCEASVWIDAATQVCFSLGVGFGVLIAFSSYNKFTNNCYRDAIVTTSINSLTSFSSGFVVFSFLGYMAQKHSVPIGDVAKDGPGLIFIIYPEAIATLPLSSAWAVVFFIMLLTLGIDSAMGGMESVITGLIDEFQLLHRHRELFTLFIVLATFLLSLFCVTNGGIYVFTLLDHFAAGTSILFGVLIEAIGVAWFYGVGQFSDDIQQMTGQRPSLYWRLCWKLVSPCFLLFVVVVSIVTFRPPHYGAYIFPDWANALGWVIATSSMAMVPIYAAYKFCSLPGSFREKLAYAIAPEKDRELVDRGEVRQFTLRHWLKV
# measurement-protocol: Inhibition of [3H]WIN-35428 binding to human recombinant DAT expressed in CHO cells at 10 uM by scintillation counting
# Type: cell-based
Classification scheme (inhibition): bin 1: < 10%; bin 2: ≥ 10% and < 20%; bin 3: ≥ 20%

smiles-notation	classification
CCn1c(=O)n([C@@H](c2ccccc2)[C@H](O)CNC)c2cc(F)ccc21	bin 3
CNC[C@@H](O)[C@H](c1ccccc1)n1c(=O)n(C(C)C)c2ccccc21	bin 2
CNC[C@@H](O)[C@H](c1cccc(F)c1)n1c(=O)n(C(C)C)c2cccc(F)c21	bin 3
CCCn1c(=O)n([C@@H](c2ccccc2)[C@H](O)CNC)c2cc(F)ccc21	bin 2
CNC[C@@H](O)[C@H](c1ccccc1)n1c(=O)n(C2CCC2)c2ccccc21	bin 1
CCn1c(=O)n([C@@H](c2ccccc2)[C@H](O)CNC)c2c(F)cccc21	bin 3
CNC[C@@H](O)[C@H](c1ccccc1)n1c(=O)n(C)c2ccccc21	bin 2
CCn1c(=O)n([C@@H](c2cccc(F)c2)[C@H](O)CNC)c2c(F)cccc21	bin 2
CCCn1c(=O)n([C@@H](c2ccccc2)[C@H](O)CNC)c2ccccc21	bin 1
CNC[C@@H](O)[C@H](c1ccccc1)n1c(=O)n(C(C)C)c2cccc(F)c21	bin 2
CCn1c(=O)n([C@@H](c2cccc(F)c2)[C@H](O)CNC)c2ccccc21	bin 1
